target: Dual luciferase reporter (DLR) with N(ε)-tert.-butyl-oxycarbonyl-lysine at K529 of the Firefly enzyme
Sequence (chain, as listed by the source): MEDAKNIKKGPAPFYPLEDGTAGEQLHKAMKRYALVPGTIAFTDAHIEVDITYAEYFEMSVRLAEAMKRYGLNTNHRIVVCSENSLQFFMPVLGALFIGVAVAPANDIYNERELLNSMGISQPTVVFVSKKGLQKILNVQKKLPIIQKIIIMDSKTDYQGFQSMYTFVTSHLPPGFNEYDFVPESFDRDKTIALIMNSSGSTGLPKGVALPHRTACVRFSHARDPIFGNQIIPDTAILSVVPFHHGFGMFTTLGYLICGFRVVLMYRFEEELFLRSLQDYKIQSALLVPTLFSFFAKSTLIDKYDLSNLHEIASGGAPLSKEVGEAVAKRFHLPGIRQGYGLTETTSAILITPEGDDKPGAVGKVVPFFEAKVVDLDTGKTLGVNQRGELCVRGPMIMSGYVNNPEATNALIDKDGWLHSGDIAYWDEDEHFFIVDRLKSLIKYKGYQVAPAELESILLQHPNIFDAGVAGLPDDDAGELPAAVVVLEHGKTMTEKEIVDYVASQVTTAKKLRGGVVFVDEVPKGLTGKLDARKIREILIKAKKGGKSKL
readout.kind: DLR activity [rel. to wild-type] (rel. to wild-type)
// no unit string in output, number only

Exercise: What value of DLR activity [rel. to wild-type] (rel. to wild-type) has been reported for the following protein? Dealocase-1 (protein) KPRVLVLTGAGISAESGIRTFRAADGLWEEHRVEDVSTPEGFDRDPELVQAFWNAWRRQLQQPEIQPNAAHLALAKLQDALGDRFLLVTQNVDNLHERAGNTNVIHMHGELLKVRCSQSGQVLDWTGDVTPEDKCHCCQFPAPLRPHVVWFGEMPLGMDEIYMALSMADIFIAIGTSGHVYPAAGFVHEAKLHGAHTVELNLEPSQVGNEFAEKYYGPASQVVPEFVEKLLKGLKAGSIA
Key: 2.88
